Test target: IDO in A431 cells (Homo sapiens, UniProt P14902)
Construct: endogenous in cells; host or cells: A431 cells, IFN-γ stimulated
Sequence (P14902 whole entry): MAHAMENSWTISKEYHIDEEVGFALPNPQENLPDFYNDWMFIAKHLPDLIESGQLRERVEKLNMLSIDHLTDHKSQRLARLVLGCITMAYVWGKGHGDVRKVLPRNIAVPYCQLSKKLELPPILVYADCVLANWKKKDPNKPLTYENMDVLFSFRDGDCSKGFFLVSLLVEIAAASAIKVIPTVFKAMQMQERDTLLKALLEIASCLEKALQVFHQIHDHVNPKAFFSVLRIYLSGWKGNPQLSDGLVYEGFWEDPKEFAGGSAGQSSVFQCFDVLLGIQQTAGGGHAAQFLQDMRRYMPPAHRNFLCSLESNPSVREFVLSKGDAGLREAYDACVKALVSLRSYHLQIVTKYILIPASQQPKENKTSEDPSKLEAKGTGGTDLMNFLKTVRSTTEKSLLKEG
Run description: IDO cell-based assay, kynurenine production in IFN-γ stimulated A431 cells
Measurement context: A-431, 24 h; final concentration of the compound 10 μM; rate relative to culture without compound
Where a name gives a salt, the structure may show the parent alone.
Each record here notes measured remaining activity at 10 µM.
Provide only the numeric value, understood in %.

N=C(N)[Se]Cc1ccccc1C[Se]C(=N)N [Compound 108, dihydrobromide]
5
Brc1ccc(CSC2=NCN(CC3CCCCC3)CN2)c(CSC2=NCN(CC3CCCCC3)CN2)c1
1
N#Cc1ccc(CNC(=O)c2cc(Br)ccc2CS/C(N)=N/c2ccc(F)c(Cl)c2)cc1 [Compound 118, hydrobromide]
3

Now look at this entry.
## Task Item N=C(N)SCc1ccccc1CC(=O)NCCc1ccccc1Cl [Compound 66, hydrobromide] : provide remaining activity at 10 µM
## Result 101

###

Test target: IDO in A431 cells (Homo sapiens, UniProt P14902)
Construct: endogenous in cells; host or cells: A431 cells, IFN-γ stimulated
Run description: IDO cell-based assay, kynurenine production in IFN-γ stimulated A431 cells
Measurement context: A-431, 24 h; final concentration of the compound 10 μM; rate relative to culture without compound
Where a name gives a salt, the structure may show the parent alone.
Each record here notes measured remaining activity at 10 µM.
Provide only the numeric value, understood in %.

Example compounds with recorded remaining activity at 10 µM:
Clc1ccc(CCN2CN=C(SCc3ccccc3CSC3=NCN(CCc4ccc(Cl)cc4Cl)CN3)NC2)c(Cl)c1
6
N/C(=N\c1ccc(Cl)cc1)SCc1cc(Cl)c(Cl)cc1CS/C(N)=N/c1ccc(Cl)cc1 [Compound 123, dihydrobromide]
12
Clc1ccc(CCN2CN=C(SCc3ccccc3CSC3=NCN(CCc4ccc(Cl)c(Cl)c4)CN3)NC2)cc1Cl
6

Now look at this entry.
## Task Item "Clc1cc(CSC2=NCN(CC3CC3)CN2)c(CSC2=NCN(CC3CC3)CN2)cc1Cl" : provide remaining activity at 10 µM
## Result 4

###

Test target: IDO in A431 cells (Homo sapiens, UniProt P14902)
Construct: endogenous in cells; host or cells: A431 cells, IFN-γ stimulated
Run description: IDO cell-based assay, kynurenine production in IFN-γ stimulated A431 cells
Measurement context: A-431, 24 h; final concentration of the compound 10 μM; rate relative to culture without compound
Structures can show the parent of a compound that is named as a salt.
Mark MET only for remaining activity at 10 µM values smaller than 60%; exact matches and larger values are NOT MET.

Use the examples below as a reference point.
Brc1cccc(CCN2CN=C(SCc3ccccc3CSC3=NCN(CCc4cccc(Br)c4)CN3)NC2)c1
MET
COc1ccc(CSC(=N)N)c(CSC(=N)N)c1 [Compound 35, dihydrobromide]
MET
N/C(=N\c1ccc(F)cc1)SCc1ccc(F)cc1CS/C(N)=N/c1ccc(F)cc1 [Compound 127, dihydrobromide]
MET
N=C(N)SCc1cc(Br)ccc1C(=O)NCc1ccc(F)cc1 [Compound 86, hydrobromide]
NOT MET
COC(=O)c1ccccc1CSC(=N)N [Compound 55, hydrochloride]
NOT MET
N#Cc1ccc(CNC(=O)c2ccc(Br)cc2CS/C(N)=N/c2ccc(F)c(Cl)c2)cc1 [Compound 85, hydrobromide]
MET
Br.Br.N/C(=N\c1ccc(F)cc1F)SCc1ccccc1CS/C(N)=N/c1ccc(F)cc1F
MET
N=C(N)[Se]Cc1nc2ccccc2nc1C[Se]C(=N)N [Compound 112, dihydrobromide]
MET
C/N=C(\NC)SCc1ccccc1CS/C(=N/C)NC
MET
Clc1ccc(CN2CN=C(SCc3ccccc3CSC3=NCN(Cc4ccc(Cl)cc4)CN3)NC2)cc1
MET

## Task Determine if N/C(=N\c1ccc(Cl)cc1)SCc1cc(F)c(F)cc1CS/C(N)=N/c1ccc(Cl)cc1 [Compound 132, dihydrobromide] shows remaining activity at 10 µM strictly lower than 60%.
## Result MET

Reference source: patent US12209079B2
